Molecular target: Cytochrome P450 2C19 (Homo sapiens)
Assay: Cytochrome panel assay with activity outcomes
Conditions: recombinant CYP, pro-luciferin dealkylation, luminescence, p450-cyp2c19; series mostly up to 57.1 µM
Experimental: The P450 gene superfamily is involved in the metabolism and clearance of xenobiotics. This assay used various human CYP P450 isozymes to measure the dealkylation of various pro-luciferin substrates to luciferin. The luciferin is then measured by luminescence after the addition of a luciferase detection reagent. […] Inhibitors and some substrates limit the production of luciferin, and decrease measured luminescence. […] 8, Detection, 1 sec, ViewLux luminescent read […]
Screen size: about 16,000 compounds; about 5,800 (36%) were called active. Roughly 23% stayed inconclusive and do not appear here. The list shows a part of the results.
property: AC50

{"molecule": "CC1=C(C(=O)N2CCCCCC2)C2(CCC(C)CC2)OC1=O (configuration not stated)", "property": "AC50", "experimental-result": "10 µM (active)"}
{"molecule": "O=S(=O)(/N=C(\\Sc1ccccc1)c1ccccc1)c1ccc(Cl)cc1", "property": "AC50", "experimental-result": "15.8 µM (active)"}
{"molecule": "Cc1cc(N)n(-c2ccc3ccccc3c2)n1", "property": "AC50", "experimental-result": "25.1 µM (active)"}
{"molecule": "Clc1ccccc1-c1ccc2ncnc(NC3CCNCC3)c2c1", "property": "AC50", "experimental-result": "3.98 µM (active)"}
{"molecule": "N#CCCn1c(=O)c(-c2ccc(Cl)cc2)nc2cnc(Oc3cccc(Cl)c3)nc21", "property": "AC50", "experimental-result": "inactive"}
{"molecule": "COC(=O)C(NC(=O)c1ccccc1)=C1C=C(C)OC(C)=C1", "property": "AC50", "experimental-result": "inactive"}
{"molecule": "CCCCNc1c(C(=O)OCC)c(C)nc2c1cnn2CC", "property": "AC50", "experimental-result": "inactive"}
{"molecule": "O=C(Nc1ccn(Cc2ccccc2F)n1)c1ccc(COc2cc(Cl)ccc2Cl)o1", "property": "AC50", "experimental-result": "0.708 µM (active)"}
{"molecule": "C/C(=C\\c1ccco1)C1C(C#N)=C(N)Oc2n[nH]c(-c3ccccc3)c21 (configuration not stated)", "property": "AC50", "experimental-result": "2.24 µM (active)"}
{"molecule": "CCCCNc1nc(-c2ccccc2)c(C(=O)OCC)cc1C#N", "property": "AC50", "experimental-result": "17.8 µM (active)"}
{"molecule": "CS(=O)(=O)Nc1cccc(-c2cncnc2Nc2ccccc2)c1", "property": "AC50", "experimental-result": "inactive"}
{"molecule": "Cc1ccccc1-c1ccc2ncnc(NC3CC3)c2c1", "property": "AC50", "experimental-result": "1.26 µM (active)"}
{"molecule": "COc1cc(/C=C2\\SC(=S)N(Nc3ccccc3)C2=O)cc(OC)c1OC", "property": "AC50", "experimental-result": "11.2 µM (active)"}
{"molecule": "N#C/C(=C\\c1cc(Cl)cc(Cl)c1O)C(=O)NC1CCCCC1", "property": "AC50", "experimental-result": "15.8 µM (active)"}
{"molecule": "FC(F)(F)c1ccccc1-c1nc(Nc2ccncc2)c2ccccc2n1", "property": "AC50", "experimental-result": "2 µM (active)"}
{"molecule": "c1cncc(-c2cc(NCc3cccs3)ncn2)c1", "property": "AC50", "experimental-result": "inactive"}
{"molecule": "Cc1ccc(CSc2nnc3c(n2)OC2(Nc4ccccc4-3)C(=O)Nc3ccc(F)cc32)cc1 (configuration not stated)", "property": "AC50", "experimental-result": "10 µM (active)"}
{"molecule": "CC1=C(C(=O)NCCN2CCN(C)CC2)C2(CCC(C)CC2)OC1=O (configuration not stated)", "property": "AC50", "experimental-result": "inactive"}
{"molecule": "CCCCS(=O)(=O)NC1=NCN(Cc2ccco2)CN1", "property": "AC50", "experimental-result": "inactive"}
{"molecule": "COc1cc(OC)c(C#N)c(S(=O)(=O)Cc2ccccc2)c1", "property": "AC50", "experimental-result": "1.26 µM (active)"}
{"molecule": "Cc1ccccc1-c1nc(NC2CCNCC2)c2ccccc2n1", "property": "AC50", "experimental-result": "inactive"}
{"molecule": "Cc1ccccc1-c1nc(Nc2ccncc2)c2ccccc2n1", "property": "AC50", "experimental-result": "inactive"}
{"molecule": "N#CCCn1c(=O)c(-c2ccc(Cl)cc2)nc2cnc(N3CCOCC3)nc21", "property": "AC50", "experimental-result": "inactive"}
{"molecule": "O=C(N/N=C/c1ccc([N+](=O)[O-])s1)c1ccccc1Br", "property": "AC50", "experimental-result": "28.2 µM (active)"}
{"molecule": "COc1ccccc1CN1CCCC2(CCN(C(=O)c3cnccn3)CC2)C1", "property": "AC50", "experimental-result": "inactive"}
{"molecule": "c1ccc(CNc2cc(-c3ccoc3)ncn2)cc1", "property": "AC50", "experimental-result": "inactive"}
{"molecule": "COc1ccc(N2CCN(c3nc(Nc4ccc(F)cc4)nc(OC)n3)CC2)cc1", "property": "AC50", "experimental-result": "inactive"}
{"molecule": "Cc1cnc(CNc2ncnc3ccc(-c4cccc(NS(C)(=O)=O)c4)cc23)cn1", "property": "AC50", "experimental-result": "inactive"}
{"molecule": "COc1ccc(/C=C(/C#N)C(=O)NC2CCCCC2)cc1Br", "property": "AC50", "experimental-result": "inactive"}
{"molecule": "CC1(C)O[C@H]2C[C@@H]3[C@H]4CCC5=CC(=O)CC[C@@]5(C)[C@]4(F)[C@@H](O)C[C@@]3(C)[C@@]2(C(=O)CCl)O1", "property": "AC50", "experimental-result": "inactive"}
{"molecule": "CCCN(CCC)CCCNC(=O)CS(=O)Cc1nc(-c2ccc(OC)c(OC)c2)oc1C (configuration not stated)", "property": "AC50", "experimental-result": "inactive"}
{"molecule": "c1csc(CNc2cc(-c3ccoc3)ncn2)c1", "property": "AC50", "experimental-result": "10 µM (active)"}
{"molecule": "N#CCCn1cc(/C=N/O)c(-c2ccc(Cl)cc2)n1", "property": "AC50", "experimental-result": "7.94 µM (active)"}
{"molecule": "C[C@@H](C(=O)NCc1cccc2ccccc12)[C@H]1C[C@]1(C)[C@H](NC(=O)OCc1ccccc1)c1ccccc1", "property": "AC50", "experimental-result": "2.51 µM (active)"}
{"molecule": "N#Cc1cccc(-c2cc(NCc3cccs3)ncn2)c1", "property": "AC50", "experimental-result": "10 µM (active)"}
{"molecule": "Clc1ccccc1-c1nc(Nc2ccncc2)c2ccccc2n1", "property": "AC50", "experimental-result": "5.01 µM (active)"}
{"molecule": "CC1=C(\\C=C/C(C)=C/C=C\\C(C)=C\\C(=O)O)C(C)(C)CCC1", "property": "AC50", "experimental-result": "5.01 µM (active)"}
{"molecule": "C[C@@H](C(=O)NCc1ccc(S(C)(=O)=O)cc1)[C@@H]1C[C@@]1(C)[C@@H](NC(=O)OCc1ccccc1)c1ccccc1", "property": "AC50", "experimental-result": "1.26 µM (active)"}
{"molecule": "N#Cc1cccc(-c2nccc(NCc3cccs3)n2)c1", "property": "AC50", "experimental-result": "3.98 µM (active)"}
{"molecule": "COc1cc(CNC(C)(C)CO)ccc1OCC(=O)Nc1ccc(Br)cc1", "property": "AC50", "experimental-result": "22.4 µM (active)"}
{"molecule": "Cc1nc2ccccn2c1C(=O)N/N=C/c1ccccc1[N+](=O)[O-]", "property": "AC50", "experimental-result": "inactive"}
{"molecule": "C=CCOc1ccc(CNC(C)(C)CO)cc1OC", "property": "AC50", "experimental-result": "inactive"}
